Values from the SangsterLogP compilation

[
  {
    "COMPOUND": "CCCCC(=O)OC[C@H]1O[C@@H](n2cnc3c(OC)ncnc32)[C@@H](OC(=O)CCCC)[C@@H]1O",
    "logP": 3.58
  },
  {
    "COMPOUND": "CCC(=O)O[C@H]1[C@H](OC(=O)CC)[C@@H](CO)O[C@H]1n1cnc2c(OC)ncnc21",
    "logP": 2.07
  },
  {
    "COMPOUND": "COc1ncnc2c1ncn2[C@@H]1O[C@H](COS(C)(=O)=O)[C@@H](OS(C)(=O)=O)[C@@H]1OS(C)(=O)=O",
    "logP": 0.58
  },
  {
    "COMPOUND": "COc1ncnc2c1ncn2[C@@H]1O[C@H](COC(=O)C(C)C)[C@@H](OC(=O)C(C)C)[C@@H]1O",
    "logP": 3.63
  },
  {
    "COMPOUND": "COc1ncnc2c1ncn2[C@@H]1O[C@H](COC(C)=O)[C@@H](OC(C)=O)[C@@H]1OC(C)=O",
    "logP": 1.93
  },
  {
    "COMPOUND": "COc1ncnc2c1ncn2[C@@H]1O[C@H](COC(=O)COc2ccccc2)[C@@H](OC(=O)COc2ccccc2)[C@@H]1O",
    "logP": 4.06
  },
  {
    "COMPOUND": "COc1ncnc2c1ncn2[C@@H]1O[C@H](COC(=O)c2ccccc2)[C@@H](O)[C@@H]1OC(=O)c1ccccc1",
    "logP": 3.39
  },
  {
    "COMPOUND": "COc1ccc(C(=O)OC[C@H]2O[C@@H](n3cnc4c(OC)ncnc43)[C@@H](OC(=O)c3ccc(OC)cc3)[C@@H]2O)cc1",
    "logP": 3.65
  },
  {
    "COMPOUND": "COc1ncnc2c1ncn2[C@@H]1O[C@H](CO)[C@@H](OC(=O)C(C)C)[C@@H]1OC(=O)C(C)C",
    "logP": 2.82
  },
  {
    "COMPOUND": "COc1ncnc2c1ncn2[C@@H]1O[C@H](COC(C)=O)[C@@H](OC(C)=O)[C@@H]1O",
    "logP": 1.75
  },
  {
    "COMPOUND": "COc1ncnc2c1ncn2[C@@H]1O[C@H](COC(=O)Cc2ccccc2)[C@@H](OC(=O)Cc2ccccc2)[C@@H]1O",
    "logP": 4.37
  },
  {
    "COMPOUND": "COc1ncnc2c1ncn2[C@@H]1O[C@H](CO)[C@@H](OC(C)=O)[C@@H]1OC(C)=O",
    "logP": 1.33
  },
  {
    "COMPOUND": "CCC(=O)OC[C@H]1O[C@@H](n2cnc3c(OC)ncnc32)[C@@H](OC(=O)CC)[C@@H]1OC(=O)CC",
    "logP": 2.75
  },
  {
    "COMPOUND": "COc1ncnc2c1ncn2[C@@H]1O[C@H](CO)[C@@H](OC(=O)Cc2ccccc2)[C@@H]1OC(=O)Cc1ccccc1",
    "logP": 3.48
  },
  {
    "COMPOUND": "COc1ncnc2c1ncn2[C@@H]1O[C@H](CO)[C@@H](OC(=O)C(C)(C)C)[C@@H]1OC(=O)C(C)(C)C",
    "logP": 3.61
  },
  {
    "COMPOUND": "CCCC(=O)OC1C(CO)OC(n2cnc3c(OC)ncnc32)C1OC(=O)CCC (stereo not given)",
    "logP": 2.9
  },
  {
    "COMPOUND": "COc1ncnc2c1ncn2[C@@H]1O[C@H](CO)[C@@H](O)[C@@H]1O",
    "logP": 0.5
  },
  {
    "COMPOUND": "COc1ncnc2c1ncn2[C@@H]1O[C@H](COC(C)=O)[C@@H](O)[C@@H]1OC(C)=O",
    "logP": 1.4
  },
  {
    "COMPOUND": "CCCCC(=O)O[C@H]1[C@H](OC(=O)CCCC)[C@@H](CO)O[C@H]1n1cnc2c(OC)ncnc21",
    "logP": 3.83
  },
  {
    "COMPOUND": "COc1ncnc2c1ncn2[C@@H]1O[C@H](COC(=O)C(C)C)[C@@H](O)[C@@H]1OC(=O)C(C)C",
    "logP": 2.7
  },
  {
    "COMPOUND": "COc1ncnc2c1ncn2[C@@H]1O[C@H](CO)[C@@H](OC(=O)COc2ccccc2)[C@@H]1OC(=O)COc1ccccc1",
    "logP": 3.4
  },
  {
    "COMPOUND": "CCC(=O)OC[C@H]1O[C@@H](n2cnc3c(OC)ncnc32)[C@@H](O)[C@@H]1OC(=O)CC",
    "logP": 2.7
  },
  {
    "COMPOUND": "CCCC(=O)OC[C@H]1O[C@@H](n2cnc3c(OC)ncnc32)[C@@H](O)[C@@H]1OC(=O)CCC",
    "logP": 3.67
  },
  {
    "COMPOUND": "COc1ncnc2c1ncn2[C@@H]1O[C@H](COC(=O)C(C)(C)C)[C@@H](O)[C@@H]1OC(=O)C(C)(C)C",
    "logP": 3.4
  },
  {
    "COMPOUND": "COc1ncnc2c1ncn2[C@@H]1O[C@H](CO)[C@@H](OC(=O)c2ccccc2)[C@@H]1OC(=O)c1ccccc1",
    "logP": 3.71
  }
]
